B1: E3 ubiquitin-protein ligase Midline-1, residues 172 to 214; numbered along this chain, O15344 (parent)
chain: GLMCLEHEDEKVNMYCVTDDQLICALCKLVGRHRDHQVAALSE

# Variants of: B1
# test.method.notes: abundance fitness (aPCA) (normalised: wild type 0, dead -1); higher = more abundant; growth selection in yeast, the domain comes from the species named
# reported.conditions: Homo sapiens
Measured abundance fitness determines class: Low (below -0.3), Mid (-0.3 to below -0.03), High (-0.03 or more)

In plain terms, what class is M14V ?
Low

Follow-up item: D35S
Mid

Follow-up item: H36T
Low

Follow-up item: E10G
Low

Follow-up item: A25P
Mid

Follow-up item: D20I
Low

Follow-up item: Q37S
High

Follow-up item: R32N
High

Follow-up item: H7S
Low

Follow-up item: K28R
High

Follow-up item: A40S
High

Follow-up item: C16V
Low

Follow-up item: D20W
Low

Follow-up item: V38G
Mid

Follow-up item: K11R
High

Follow-up item: A25C
Mid

Follow-up item: V38M
Mid

Follow-up item: L5Q
Mid

Follow-up item: M3R
Mid

Follow-up item: L22V
High

Follow-up item: H36P
Low

Follow-up item: M3W
Low

Follow-up item: G1T
Mid

Follow-up item: V17T
High

Follow-up item: L29R
High

Follow-up item: A25F
Mid

Follow-up item: H7C
Low

Follow-up item: C16E
Mid

Follow-up item: S42E
High

Follow-up item: E6Q
Mid

Follow-up item: R34C
High

Follow-up item: L41T
High

Follow-up item: H33V
Low

Follow-up item: R34P
Mid

Follow-up item: R32T
High

Follow-up item: H7W
Low

Follow-up item: C27Y
Low

Follow-up item: G31M
Low

Follow-up item: L41Y
Low

Follow-up item: K28H
High

Follow-up item: T18D
Mid

Follow-up item: Y15W
Mid

Follow-up item: A39H
High

Follow-up item: R34W
Low

Follow-up item: G31Y
Mid

Follow-up item: M14T
High

Follow-up item: H36D
Low

Follow-up item: I23D
Mid

Follow-up item: K11C
High

Follow-up item: D19V
Low

Follow-up item: E10F
Mid

Follow-up item: C24R
Low

Follow-up item: D19Q
Low

Follow-up item: N13Q
High

Follow-up item: L29E
High

Follow-up item: K11Q
High

Follow-up item: H36C
Mid

Follow-up item: E8T
High

Follow-up item: K11I
High

Follow-up item: D35R
Mid

Follow-up item: Q21S
High

Follow-up item: C16A
Low

Follow-up item: R34Q
High

Follow-up item: C16R
Low

Follow-up item: V12C
Mid

Follow-up item: V12F
High

Follow-up item: K11G
Mid

Follow-up item: K28W
Mid

Follow-up item: L5N
Mid

Follow-up item: K11V
Mid

Follow-up item: K11F
Mid

Follow-up item: K28C
Mid

Follow-up item: C16T
Low

Follow-up item: A40F
High

Follow-up item: H33L
Low

Follow-up item: M3C
Mid

Follow-up item: H7Q
Low

Follow-up item: R34K
High

Follow-up item: N13L
Mid

Follow-up item: A40L
Mid

Follow-up item: L5S
High

Follow-up item: M14L
High

Follow-up item: K28Q
High

Follow-up item: L22P
High
